Attribute: inhibition of growth at 50 µM
Tested on: HEp-2
Assay: Cytotoxicity against human HEP2 cells assessed as age growth inhibition at 50 uM after 48 hrs by sulforhodamine B assay
Format: functional
Settings: HEp-2, 48 h, read-out: GI

INSERT INTO measurements (chemical_smiles, property, result) VALUES
  ('CC1(C)CCC[C@@]2(C)C1=C[C@H]1C(=O)O[C@H](c3ccc(Br)cc3)[C@H]12', 'inhibition of growth at 50 µM', '18%'),
  ('CC1(C)CCC[C@@]2(C)C1=C[C@H]1C(=O)O[C@H](c3ccco3)[C@H]12', 'inhibition of growth at 50 µM', '19%'),
  ('CC1(C)CCC[C@@]2(C)C1=C[C@H]1C(=O)O[C@H](c3ccc(F)cc3)[C@H]12', 'inhibition of growth at 50 µM', '13%'),
  ('Cc1ccc([C@H]2OC(=O)[C@@H]3C=C4C(C)(C)CCC[C@]4(C)[C@H]23)cc1', 'inhibition of growth at 50 µM', '25%'),
  ('COc1ccc([C@H]2OC(=O)[C@@H]3C=C4C(C)(C)CCC[C@]4(C)[C@H]23)cc1', 'inhibition of growth at 50 µM', '23%'),
  ('CC1(C)CCC[C@@]2(C)C1=C[C@H]1C(=O)O[C@H](c3ccc(Cl)cc3)[C@H]12', 'inhibition of growth at 50 µM', '18%');

Entry "CC1(C)CCC[C@@]2(C)C1=C[C@H]1C(=O)O[C@H](c3ccccc3)[C@H]12" : reported inhibition of growth at 50 µM = ?
18%

What about this compound? "CC1(C)CCC[C@@]2(C)C1=C[C@H]1C(=O)O[C@H](c3ccc(C#N)cc3)[C@H]12"
18%
